Source of measurements: ChEMBL document CHEMBL6120973

Target: UniProt P11712
Sequence (P11712 whole entry): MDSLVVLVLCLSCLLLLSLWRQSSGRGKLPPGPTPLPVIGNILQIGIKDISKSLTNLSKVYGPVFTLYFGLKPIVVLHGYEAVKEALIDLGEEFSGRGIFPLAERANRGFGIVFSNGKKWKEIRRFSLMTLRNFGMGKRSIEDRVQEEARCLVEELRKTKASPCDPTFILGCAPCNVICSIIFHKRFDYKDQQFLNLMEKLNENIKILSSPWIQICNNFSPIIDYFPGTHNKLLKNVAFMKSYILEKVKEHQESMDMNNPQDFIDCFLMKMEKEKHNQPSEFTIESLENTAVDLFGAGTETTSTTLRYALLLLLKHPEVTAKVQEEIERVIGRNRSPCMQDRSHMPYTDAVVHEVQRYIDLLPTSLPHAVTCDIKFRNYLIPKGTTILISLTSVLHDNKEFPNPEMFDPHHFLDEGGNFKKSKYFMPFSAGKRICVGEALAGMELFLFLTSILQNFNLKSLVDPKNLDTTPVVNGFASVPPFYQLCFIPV
pIC50: −log10 of the molar value.
QUANTITY: pIC50

Query: What value of pIC50 on UniProt P11712 does `Cc1cc(-c2ccncc2)cc(C)c1Nc1nc(Nc2ccc(C#N)cc2)ncc1-c1cn[nH]c1` have?
Reply: < 4.30

* * *

Test: Half-life in male Sprague-Dawley rat at 1 mg/kg, iv measured after 24 hrs by LC-MS analysis
Type: ADME, organism-based
Settings: in vivo
QUANTITY: half-life
Quick note: number first, unit second.

Query: What value of half-life has been reported for the following compound? `Cc1cc(-c2ccncc2)cc(C)c1Nc1nc(Nc2ccc(C#N)cc2)ncc1-c1cn[nH]c1.Cl`
Reply: 50.4 min

* * *

Assay: AUC (0 to t) in male Sprague-Dawley rat at 1 mg/kg, iv measured after 24 hrs by LC-MS analysis
Format: ADME, organism-based
Details: in vivo
QUANTITY: AUC(0-t) at 24 h (ng·h/mL)
Kindly provide the numeric value in ng·h/mL only, without the unit symbol.

Query: What value of AUC(0-t) at 24 h has been reported for the following compound? `Cc1cc(-c2ccncc2)cc(C)c1Nc1nc(Nc2ccc(C#N)cc2)ncc1-c1cn[nH]c1.Cl`
Reply: 600

* * *

Assay: MRT (0 to infinity) in male Sprague-Dawley rat at 1 mg/kg, iv measured after 24 hrs by LC-MS analysis
Format: ADME, organism-based
Details: in vivo
QUANTITY: MRT inf (h)
Kindly provide the numeric value in h only, without the unit symbol.

Query: What value of MRT inf has been reported for the following compound? `Cc1cc(-c2ccncc2)cc(C)c1Nc1nc(Nc2ccc(C#N)cc2)ncc1-c1cn[nH]c1.Cl`
Reply: 1.14

* * *

Overview of reported pEC50 across a group of molecules:
Test system: Human immunodeficiency virus 1
Assay: Antiviral activity against HIV-1 harboring RT Y188L mutant infected in human MT4 cells assessed as protection against virus-induced cytopathic effect incubated for 5 days by MTT assay
Type: functional, organism-based
Settings: Human immunodeficiency virus 1, MT4, 120 h
pEC50 is a log-scale quantity: -log10 of the concentration expressed in molar.

Solved cases (2 shown):
>>> recorded_result("Cc1cc(-c2ccncc2)cc(C)c1Nc1nc(Nc2ccc(C#N)cc2)ncc1-c1cccs1")
7.54
>>> recorded_result("Cc1cc(-c2ccncc2)cc(C)c1Nc1nc(Nc2ccc(C#N)cc2)ncc1-c1cncc(N)c1")
7.20

Query: What value of pEC50 has been reported for the following molecule? `Cc1cc(-c2ccncc2)cc(C)c1Nc1nc(Nc2ccc(C#N)cc2)ncc1-c1cncc(Cl)c1`
Reply: 6.92

Query: What value of pEC50 has been reported for the following molecule? `Cc1cc(-c2ccncc2)cc(C)c1Nc1nc(Nc2ccc(C#N)cc2)ncc1-c1ccncc1`
Reply: 6.74

Query: What value of pEC50 has been reported for the following molecule? `Cc1cc(-c2ccncc2)cc(C)c1Nc1nc(Nc2ccc(C#N)cc2)ncc1-c1ccnc(F)c1`
Reply: 7.35

Query: What value of pEC50 has been reported for the following molecule? `Cc1cc(-c2cnc(Nc3ccc(C#N)cc3)nc2Nc2c(C)cc(-c3ccncc3)cc2C)ccn1`
Reply: 7.03

* * *

Overview of reported selectivity ratio across a group of compounds:
Assay: Selectivity index, ratio of CC50 for human MT4 cells to EC50 for wild type HIV-1 IIIB infected in human MT4 cellS
Conditions: MT4 cells

Solved cases (2 shown):
>>> recorded_result("COc1ccc(-c2cnc(Nc3ccc(C#N)cc3)nc2Nc2c(C)cc(-c3ccncc3)cc2C)cn1")
"> 3270"
>>> recorded_result("Cc1cc(-c2cnc(Nc3ccc(C#N)cc3)nc2Nc2c(C)cc(-c3ccncc3)cc2C)cnc1F")
"> 7640"

Query: What value of selectivity ratio has been reported for the following compound? `Cc1cc(-c2ccncc2)cc(C)c1Nc1nc(Nc2ccc(C#N)cc2)ncc1-c1ccnc(F)c1`
Reply: > 31500
